This collection of values is drawn from patent US20240270821A1.

# target: human GcgR (Homo sapiens, UniProt P47871)
# Sequence (P47871 26-477): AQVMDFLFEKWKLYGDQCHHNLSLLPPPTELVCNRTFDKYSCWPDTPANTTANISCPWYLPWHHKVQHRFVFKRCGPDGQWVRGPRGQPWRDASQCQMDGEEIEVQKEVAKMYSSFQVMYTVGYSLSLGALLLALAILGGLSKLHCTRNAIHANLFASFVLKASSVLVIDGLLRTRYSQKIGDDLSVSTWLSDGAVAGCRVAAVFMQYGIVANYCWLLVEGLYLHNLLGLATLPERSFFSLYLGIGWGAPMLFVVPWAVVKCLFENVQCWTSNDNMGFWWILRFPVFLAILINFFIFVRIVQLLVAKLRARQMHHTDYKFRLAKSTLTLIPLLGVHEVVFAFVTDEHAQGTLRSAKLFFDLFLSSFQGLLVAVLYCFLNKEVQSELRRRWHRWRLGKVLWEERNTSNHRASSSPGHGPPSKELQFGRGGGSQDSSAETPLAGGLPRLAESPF
# procedure.summary: Functional cAMP activity in the presence of 1% HSA
# Format: cell-based
# condition.summary: read-out: cAMP Rel EC50, hGcgR
Starred links: 1 amine or outer side, 2 acyl side, 3 side chain; linkers in the order of their positions; H or OH if unused. Non-standard residues stand in square brackets, D forms with d. Groups on a side chain read outwards from the residue. *: point of attachment. C18 diacid = O=C(O)CCCCCCCCCCCCCCCCC(=O)*; αMePhe(2-F) = C[C@](N)(Cc1ccccc1F)C(=O)O; γGlu = O=C(O)[C@H](CCC(=O)[*:2])N[*:1]; αMe4Pal = C[C@](N)(Cc1ccncc1)C(=O)O; αMeY = C[C@](N)(Cc1ccc(O)cc1)C(=O)O; 4Pal = N[C@@H](Cc1ccncc1)C(=O)O; αMeL = CC(C)C[C@](C)(N)C(=O)O; αMeS = C[C@](N)(CO)C(=O)O; Orn = NCCC[C@H](N)C(=O)O; AEEA = NCCOCCOCC(=O)O; Aib = CC(C)(N)C(=O)O
property.measured: EC50

The following substances have reported results that may help.
H-Y[Aib]QGTFTSDFS[Orn][αMeL]LDKK([AEEA-γGlu-C18 diacid])AQ[αMe4Pal]AFIEYLIE[Aib]GESSGAPPPSGE-NH2 [Example 228]; 322 nM
H-Y[Aib]QGTFTSDYS[Orn][αMeL]LDKK([AEEA-γGlu-C18 diacid])AQ[Aib]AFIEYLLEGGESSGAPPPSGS-NH2 [Example 359]; 957 nM
H-Y[Aib]QGT[αMePhe(2-F)]TSD[4Pal][αMeS]I[αMeL]LD[Orn]K([γGlu-Glu-C18 diacid])AQ[Aib][Orn]FI[dE][αMeY]LSEGGPSSGEPPPSGTEE-NH2 [Example 566]; 1780 nM

// query Annotate the substance H-Y[Aib]QGTFTSD[4Pal]SQ[αMeL]LDKK([γGlu-γGlu-C18 diacid])AQ[αMe4Pal]AFIEYLIE[Aib]GPSSGAPPPEGE-NH2 [Example 884] with its measured EC50.
// result 613 nM

====

# target: hGcgR (Homo sapiens)
# Sequence (P47871 26-477): as the sequence (P47871 26-477) above
# procedure.summary: Functional cAMP activation in the presence of 0.1% casein (no HSA);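 also: intracellular cAMP rise after 30 min at 37 °C, read by HTRF against a cAMP standard curve, scaled from buffer only (0%) to maximal control ligand response (100%)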
# Type: cell-based
# condition.summary: in the presence of 0.1% casein (no HSA); geometric mean; read-out: Relative cAMP EC50, hGcgR
Starred links: 1 amine or outer side, 2 acyl side, 3 side chain; linkers in the order of their positions; H or OH if unused. Non-standard residues stand in square brackets, D forms with d. Groups on a side chain read outwards from the residue. No end group written: not given here. *: point of attachment. C20 diacid = O=C(O)CCCCCCCCCCCCCCCCCCC(=O)*; C18 diacid = O=C(O)CCCCCCCCCCCCCCCCC(=O)*; γGlu = O=C(O)[C@H](CCC(=O)[*:2])N[*:1]; εLys = N[C@@H](CCCCN[*:1])C(=O)[*:2]; αMe4Pal = C[C@](N)(Cc1ccncc1)C(=O)O; 4Pal = N[C@@H](Cc1ccncc1)C(=O)O; αMeL = CC(C)C[C@](C)(N)C(=O)O; Orn = NCCC[C@H](N)C(=O)O; AEEA = NCCOCCOCC(=O)O; Aib = CC(C)(N)C(=O)O
property.measured: pEC50
# pEC50 = -log10(concentration in molar units)

The following substances have reported results that may help.
H-Y[Aib]QGTFTSDFS[Orn][αMeL]LDKK([AEEA-γGlu-C18 diacid])AQ[Aib]AFIEWLLEGGTSSGAPPPSGE-NH2 [Example 175]; 8.31
H-Y[Aib]QGTFTSD[4Pal]SR[αMeL]LDKK([AEEA-γGlu-C18 diacid])AQ[αMe4Pal]AFIEYLIE[Aib]GESSGAPPPSGS-NH2 [Example 224]; 8.72
Y[Aib]QGTFTSD[4Pal]SQ[αMeL]LDKK([γGlu-dE-dE-C18 diacid])AQ[αMe4Pal]AFIEYLIE[Aib]GPSSGAPPPSGSE-NH2 [Example 926]; 7.88
H-Y[Aib]QGTFTSDFS[Orn][αMeL]LDKK([AEEA-γGlu-C18 diacid])AQ[Aib]AFIEYLIE[Aib]GESSGAPPPSGS-NH2 [Example 218]; 8.10

// query Annotate the substance H-Y[Aib]QGTFTSDFS[Orn][αMeL]LDKK([AEEA-γGlu-C18 diacid])AQ[Aib]AFIEWLLEGGPSSGAPPPEGS-NH2 [Example 121] with its measured pEC50.
// result 8.31

// query Annotate the substance H-Y[Aib]QGTFTSDYSI[αMeL]LDKQAAK([εLys-εLys-γGlu-C20 diacid])QFVEWLLA[Aib]GPSSGEPPPSEG-NH2 [Example 329] with its measured pEC50.
// result 8.46

// query Annotate the substance H-Y[Aib]QGTFTSD[4Pal]SQ[αMeL]LD[Orn]K([γGlu-γGlu-C18 diacid])AQ[αMe4Pal]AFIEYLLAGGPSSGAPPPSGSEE-NH2 [Example 1056] with its measured pEC50.
// result 8.40

// query Annotate the substance H-Y[Aib]QGTFTSDFS[Orn][αMeL]LDKK([γGlu-AEEA-γGlu-C18 diacid])AQ[Aib]AFIEYLLE[Aib]GPSSGAPPPSGT-NH2 [Example 276] with its measured pEC50.
// result 8.55
